Entry source: patent US20020019412A1

EXPERIMENTAL_SYSTEM: PTP1B (Homo sapiens)
Construct: a truncated form of PTP1B (corresponding to the first 321 amino acids)
Sequence (P18031 1-321): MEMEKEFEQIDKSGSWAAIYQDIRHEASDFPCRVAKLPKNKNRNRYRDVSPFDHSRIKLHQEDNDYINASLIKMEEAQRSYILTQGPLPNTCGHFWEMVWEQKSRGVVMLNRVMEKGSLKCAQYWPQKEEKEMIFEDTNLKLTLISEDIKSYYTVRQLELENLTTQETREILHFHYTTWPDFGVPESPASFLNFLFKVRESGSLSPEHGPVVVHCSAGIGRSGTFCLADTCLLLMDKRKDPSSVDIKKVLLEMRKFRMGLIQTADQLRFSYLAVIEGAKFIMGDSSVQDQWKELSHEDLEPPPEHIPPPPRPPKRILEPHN
TEST_DESCRIPTION: Inhibition of truncated PTP1B, p-nitrophenyl phosphate substrate
CONDITION_PARAMETERS: truncated PTP1B (first 321 amino acids) expressed in E. coli; pNPP substrate; pH 5.5; 25° C., 60 minutes
Where a name gives a salt, the structure may show the parent alone.
READOUT_KIND: Ki (µM)
Return type: number; implicit unit µM.

Endpoint output: Ki of O=C(O)C(=O)Nc1c(C(=O)O)sc2ncccc12 [Example 1, mono sodium salt] . Value?
330
